- measurement target: ZFP SBS#1395 (synthetic)
- Sequence (chain, as listed by the source): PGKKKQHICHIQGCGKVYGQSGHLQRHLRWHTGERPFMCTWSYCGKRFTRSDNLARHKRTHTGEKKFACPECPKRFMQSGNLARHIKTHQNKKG
- test details: EMSA
- condition set: tags: MBP fusion
metric: Kd
Note: state the figure and append the unit.

In: Answer with reported Kd of GAAGAGGGA (dsDNA) DNA 1: GAAGAGGGA DNA 2: TCCCTCTTC
Out: 0.025 nM
